Target: GRIP2_3, Q9C0E4
Sequence (Q9C0E4 238-339): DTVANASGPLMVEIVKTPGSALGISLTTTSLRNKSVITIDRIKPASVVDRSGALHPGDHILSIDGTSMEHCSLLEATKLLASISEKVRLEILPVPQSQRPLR
Experiment: holdup assay
Design: key: below the threshold = too weak to quantify, mostly under pKd 3.1 to 4
Conditions: plain residues with an end cap or a label only (N-terminal biotin on a linker: ttds)

>  <Binder>
NPDALPETLV [ARHGAP6, O43182]

>  <pKd>
below the threshold

$$$$
>  <Binder>
PSRDRKETSI [RALBP1, Q15311]

>  <pKd>
below the threshold

$$$$
>  <Binder>
KLVIKTETTV [RASSF6, Q6ZTQ3]

>  <pKd>
below the threshold

$$$$

meta.source: paper PMC9482650
